Tested on: duck salad
Experiment: Test C flooded paddy test
Format: in vivo, Heteranthera limosa
Details: Flood, 62 g ai/ha; scale 0 to 100 (0 no effect, 100 complete control)
Quantity Measured: Plant response rating, Ducksalad
Answer field: number only, no words.

Q: Need Plant response rating, Ducksalad, item Cn1nc(C(F)(F)F)c(CS(=O)(=O)c2cc(C(C)(C)C)cc[n+]2[O-])c1OCC(F)(F)F
Result: 0

Q: Try this compound too: Cn1nc(C(F)(F)F)c(CS(=O)(=O)c2cccc[n+]2[O-])c1OCC(F)F
Result: 65

Q: Try this compound too: CCc1cc[n+]([O-])c([S+]([O-])Cc2c(C(F)(F)F)nn(C)c2OC(F)F)c1 (stereo not shown)
Result: 0

Q: Try this compound too: CC(Oc1c(C[S+]([O-])c2cccc[n+]2[O-])c(C(F)(F)F)nn1C)C(F)(F)F (stereo not shown)
Result: 75

Q: Try this compound too: Cn1nc(OC(F)F)c(C[S+]([O-])c2cccc[n+]2[O-])c1C(F)(F)F (stereo not shown)
Result: 70

Q: Try this compound too: CCn1nc(C(F)(F)F)c(CS(=O)(=O)c2cc(C)cc[n+]2[O-])c1OCC(F)(F)F
Result: 20

Q: Try this compound too: Cn1nc(C(F)(F)F)c(C[S+]([O-])c2ccc(Cl)c[n+]2[O-])c1OCC(F)F (stereo not shown)
Result: 45

Q: Try this compound too: Cc1cc([S+]([O-])Cc2c(C(F)(F)F)nn(C)c2OCC(F)(F)F)[n+]([O-])cc1Cl (stereo not shown)
Result: 85

Q: Try this compound too: CCOc1ccc(S(=O)(=O)Cc2c(C(F)(F)F)nn(C)c2OC(F)F)[n+]([O-])c1
Result: 0

Q: Try this compound too: CCn1nc(C(F)(F)F)c(CS(=O)(=O)c2cccc[n+]2[O-])c1OCC(F)(F)F
Result: 0

Q: Try this compound too: C#CCOc1c(C[S+]([O-])c2cccc[n+]2[O-])c(C(F)(F)F)nn1C (stereo not shown)
Result: 0

Q: Try this compound too: Cn1nc(C(F)(F)F)c(C[S+]([O-])c2cccc[n+]2[O-])c1OCC(F)(F)C(F)(F)F (stereo not shown)
Result: 30

Q: Try this compound too: CCn1nc(C(F)(F)F)c(C[S+]([O-])c2cc(C)cc[n+]2[O-])c1OCC(F)(F)F (racemic)
Result: 70

###

Assign Russian Thistle plant response rating to each entry below.
System: Russian thistle
Assay: Test C pre-/postemergence test
Assay type: in vivo, Salsola kali
Settings: 62 g ai/ha, Preemergence; scale 0 to 100
Answer field: number only, no words.

Q: Need Russian Thistle plant response rating, item Cc1cc[n+]([O-])c(S(=O)(=O)Cc2c(C(F)(F)F)nn(C)c2OCC(F)F)c1
Result: 100

Q: Try this molecule too: Cn1nc(C(F)(F)F)c(C[S+]([O-])c2cc(Br)cc[n+]2[O-])c1Cl (racemic)
Result: 100

Q: Try this molecule too: C#CCOc1c(CS(=O)(=O)c2cccc[n+]2[O-])c(C(F)(F)F)nn1C
Result: 100

Q: Try this molecule too: CC(Oc1c(C[S+]([O-])c2ccc(Cl)c[n+]2[O-])c(C(F)(F)F)nn1C)C(F)(F)F (stereo not shown)
Result: 100

Q: Try this molecule too: Cn1nc(C(F)(F)F)c(C(Cl)S(=O)(=O)c2cccc[n+]2[O-])c1OC(F)F (stereo not shown)
Result: 100

Q: Try this molecule too: CC(Oc1c(C[S+]([O-])c2cccc[n+]2[O-])c(C(F)(F)F)nn1C)C(F)(F)F (stereo not shown)
Result: 100

Q: Try this molecule too: CC(c1c(C(F)(F)F)nn(CC(F)(F)F)c1Cl)[S+]([O-])c1cccc[n+]1[O-] (stereo not shown)
Result: 0

Q: Try this molecule too: Cn1nc(C(F)(F)F)c(C[S+]([O-])c2ccc(F)c[n+]2[O-])c1Cl (stereo not shown)
Result: 30

Q: Try this molecule too: Cn1nc(C(F)(F)F)c(CS(=O)(=O)c2ccc(Cl)c[n+]2[O-])c1Cl
Result: 30

Q: Try this molecule too: CCc1cc[n+]([O-])c([S+]([O-])Cc2c(C(F)(F)F)nn(C)c2OC(F)F)c1 (stereo not shown)
Result: 100
